The reported measurements were obtained from patent US7504426B2.

Target: human histamine H4 receptor (Homo sapiens, UniProt Q9H3N8)
Sequence (Q9H3N8 whole entry): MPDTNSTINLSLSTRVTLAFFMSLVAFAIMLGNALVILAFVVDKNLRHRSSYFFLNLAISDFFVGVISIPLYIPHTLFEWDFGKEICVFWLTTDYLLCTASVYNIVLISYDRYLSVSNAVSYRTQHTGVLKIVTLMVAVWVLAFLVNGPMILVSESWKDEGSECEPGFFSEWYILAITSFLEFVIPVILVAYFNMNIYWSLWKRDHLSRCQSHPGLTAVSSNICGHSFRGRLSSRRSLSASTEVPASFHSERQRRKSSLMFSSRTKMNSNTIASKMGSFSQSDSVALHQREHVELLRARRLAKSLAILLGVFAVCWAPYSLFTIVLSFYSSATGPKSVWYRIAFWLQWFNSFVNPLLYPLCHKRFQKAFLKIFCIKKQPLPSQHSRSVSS
Assay: biochemical
recorded.endpoint: log10 Ki (log10 of the value in µM)
Quick note: numbers are log10 of Ki, with µM as the unit.

In: What measured log10 Ki goes with Cc1cccc2oc(C(=O)N3CCN(C)CC3)nc12 [Example 38] ?
Out: 0.20

In: What measured log10 Ki goes with CN1CCN(C(=N)c2nc3cc(Cl)ccc3[nH]2)CC1 [Example 45] ?
Out: -0.96

* * *

Target: human histamine H4 receptor (Homo sapiens)
Test: biochemical
recorded.endpoint: Ki (nM)
Value expressed in nM; do not type the unit.

In: Identify the measured Ki of CN1CCN(C(=O)c2nc3cc(Cl)ccc3[nH]2)CC1 [Example 6] for human histamine H4 receptor (Homo sapiens).
Out: 25

In: Identify the measured Ki of Cc1ccc2[nH]c(C(=O)N3CCN(C)CC3)nc2c1 [Example 26] for human histamine H4 receptor (Homo sapiens).
Out: 528

In: Identify the measured Ki of CN1C2CCC1CC(NC(=O)c1nc3cc(F)c(Cl)cc3[nH]1)C2 (stereo not shown) [Example 17] for human histamine H4 receptor (Homo sapiens).
Out: 535

In: Identify the measured Ki of Cc1cccc2[nH]c(C(=O)N[C@H]3C[C@H]4CC[C@@H](C3)N4C)nc12 [Example 24] for human histamine H4 receptor (Homo sapiens).
Out: 270

In: Identify the measured Ki of CN1CCCN(C(=O)c2nc3cc(F)c(F)cc3[nH]2)CC1 [Example 12] for human histamine H4 receptor (Homo sapiens).
Out: 807

In: Identify the measured Ki of CN1CCN(C(=O)c2nc3cccnc3[nH]2)CC1 [Example 34] for human histamine H4 receptor (Homo sapiens).
Out: 833

In: Identify the measured Ki of O=C(c1nc2cc(F)c(Cl)cc2[nH]1)N1CCNCC1 [Example 15] for human histamine H4 receptor (Homo sapiens).
Out: 216

In: Identify the measured Ki of Cc1cccc2[nH]c(C(=O)N3CCN(C)CC3)nc12 [Example 22] for human histamine H4 receptor (Homo sapiens).
Out: 31

In: Identify the measured Ki of CN1CCN(C(=O)c2nc3cc(C(F)(F)F)ccc3[nH]2)CC1 [Example 27] for human histamine H4 receptor (Homo sapiens).
Out: 11

---
In: Identify the measured Ki of CN1CCN(C(=O)c2nc3ccccc3o2)CC1 [Example 35] for human histamine H4 receptor (Homo sapiens).
Out: 620

* * *

Molecular target: human histamine H4 receptor (Homo sapiens, UniProt Q9H3N8)
Experiment: biochemical
recorded.endpoint: Ki
# include the unit after the value

Illustrative cases are given below, each with its answer.
In: Identify the measured Ki of O=C(c1nc2cc(Cl)ccc2[nH]1)N1CCNCC1 [Example 7] for human histamine H4 receptor (Homo sapiens, UniProt Q9H3N8).
Out: 87 nM

In: Identify the measured Ki of Cc1c(F)ccc2[nH]c(C(=O)N3CCN(C)CC3)nc12 [Example 48] for human histamine H4 receptor (Homo sapiens, UniProt Q9H3N8).
Out: 23 nM

In: Identify the measured Ki of CC1CN(C(=O)c2nc3ccccc3[nH]2)CCN1 (stereo not shown) [Example 3] for human histamine H4 receptor (Homo sapiens, UniProt Q9H3N8).
Out: 331 nM

In: Identify the measured Ki of CN1CCN(C(=O)c2nc3ccccc3[nH]2)CC1 [Example 1] for human histamine H4 receptor (Homo sapiens, UniProt Q9H3N8).
Out: 32 nM

In: Identify the measured Ki of Cc1cccc2nc(C(=O)N3CCN(C)CC3)oc12 [Example 36] for human histamine H4 receptor (Homo sapiens, UniProt Q9H3N8).
Out: 1200 nM

---
In: Identify the measured Ki of CCN1CCN(C(=O)c2nc3cc(F)ccc3[nH]2)CC1 [Example 30] for human histamine H4 receptor (Homo sapiens, UniProt Q9H3N8).
Out: 370 nM

In: Identify the measured Ki of CN1CCN(C(=O)c2nc3c(F)cc(F)cc3[nH]2)CC1 [Example 46] for human histamine H4 receptor (Homo sapiens, UniProt Q9H3N8).
Out: 64 nM

In: Identify the measured Ki of CN1CCN(C(=O)c2nc3cc(F)ccc3[nH]2)CC1 [Example 29] for human histamine H4 receptor (Homo sapiens, UniProt Q9H3N8).
Out: 26 nM

In: Identify the measured Ki of CN1CCN(C(=O)c2nc3cc(F)c(Cl)cc3[nH]2)CC1 [Example 14] for human histamine H4 receptor (Homo sapiens, UniProt Q9H3N8).
Out: 53 nM

In: Identify the measured Ki of O=C(c1nc2cc(F)ccc2[nH]1)N1CCNCC1 [Example 31] for human histamine H4 receptor (Homo sapiens, UniProt Q9H3N8).
Out: 42 nM
